TEST_DETAILS: Selectivity index, ratio of IC50 for rat L6 cells to IC50 for Leishmania donovani MHOM/ET/67/L82 axenic amastigotes
Format: toxicity
RECORDED_CONDITIONS: read-out: Ratio IC50
READOUT_LABEL: selectivity ratio
Give the figure only, with no unit attached.

-- ask GET /values?readout=selectivity ratio&item= CC(C)[C@H]1C(=O)C2=C(C1=O)[C@@]1(C)CCCC(C)(C)[C@@H]1CC2=O
-- reply 2.6

---

Test system: Plasmodium falciparum
TEST_DETAILS: Antiplasmodial activity against drug-sensitive erythrocyte stage of Plasmodium falciparum NF54 assessed as reduction in [3H]-hypoxanthine incorporation pretreated for 48 hrs followed by [3H]-hypoxanthine addition measured after 24 hrs by liquid scintillation counting method
Type: functional, organism-based
READOUT_LABEL: pIC50
In textbook form, pIC50 equals minus log to base ten of the concentration in mol/L.

-- ask GET /values?readout=pIC50&item= CC(C)c1cc(CC[C@@H]2C(=O)CCCC2(C)C)c(O)cc1O
-- reply 6.40

-- ask GET /values?readout=pIC50&item= CC(C)[C@H]1C(=O)C2=C(C1=O)[C@@]1(C)CCCC(C)(C)[C@@H]1CC2=O
-- reply 5.44
